assay: ATG_CMV_CIS: Attagene CIS-FACTORIAL HepG2 Assay for human CMV (Internal Marker) (AID 2282928); settings: HepG2 CMV promoter reporter, transcription factor profiling; actives raise or lower the signal;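 note: endpoint acts as a background internal control marker rather than a target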
The source made the active and inactive calls. Rule for the calls: active = hit-call score of the fitted dose curve at least 0.9, where 1 is the maximum; inactive = score below 0.9.
endpoint_name: AC50

| compound | obs_value |
| --- | --- |
| CCCCC(CC)COC(=O)c1ccc(N(C)C)cc1 (stereo unspecified) | 53.9 µM (active) |
| O=C1c2c(O)ccc(Nc3ccc(CCO)cc3)c2C(=O)c2c([N+](=O)[O-])ccc(O)c21 | 12 µM (active) |
| CCOC(=O)C1CC(=O)C(=C(O)C2CC2)C(=O)C1 (stereo unspecified) | inactive |
| Cc1cc(O)c(C(C)(C)C)cc1C(C)(C)C | 9.14 µM (active) |
| CC1=CCC2C(=O)OC(=O)C2C1 (stereo unspecified) | inactive |
| CCN(CC)c1ccc(N=Nc2ccccc2)cc1 | inactive |
| O=C=Nc1cccc2c(N=C=O)cccc12 | inactive |
| O=C=NCc1cccc(CN=C=O)c1 | inactive |
| OCC(F)(F)C(F)(F)C(F)(F)C(F)(F)C(F)(F)C(F)(F)C(F)(F)C(F)(F)CO | inactive |
| OCCCC(F)(F)C(F)(F)C(F)(F)C(F)(F)C(F)(F)C(F)(F)C(F)(F)C(F)(F)F | inactive |
| C[C@]12CC[C@H]3C(=CCc4cc(O)ccc43)[C@@H]1CCC2=O | inactive |

---

target: Estrogen receptor beta (Homo sapiens) (UniProt Q92731); test: OT_ER_ERbERb_0480: Odyssey Thera (OT) 8-hour HEK293T Protein-Complementation Assay for Estrogen Receptor-beta/-beta Homodimer (AID 2283357);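 note: active means signal gain over DMSO baseline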
Sequence (Q92731 whole entry, looked up): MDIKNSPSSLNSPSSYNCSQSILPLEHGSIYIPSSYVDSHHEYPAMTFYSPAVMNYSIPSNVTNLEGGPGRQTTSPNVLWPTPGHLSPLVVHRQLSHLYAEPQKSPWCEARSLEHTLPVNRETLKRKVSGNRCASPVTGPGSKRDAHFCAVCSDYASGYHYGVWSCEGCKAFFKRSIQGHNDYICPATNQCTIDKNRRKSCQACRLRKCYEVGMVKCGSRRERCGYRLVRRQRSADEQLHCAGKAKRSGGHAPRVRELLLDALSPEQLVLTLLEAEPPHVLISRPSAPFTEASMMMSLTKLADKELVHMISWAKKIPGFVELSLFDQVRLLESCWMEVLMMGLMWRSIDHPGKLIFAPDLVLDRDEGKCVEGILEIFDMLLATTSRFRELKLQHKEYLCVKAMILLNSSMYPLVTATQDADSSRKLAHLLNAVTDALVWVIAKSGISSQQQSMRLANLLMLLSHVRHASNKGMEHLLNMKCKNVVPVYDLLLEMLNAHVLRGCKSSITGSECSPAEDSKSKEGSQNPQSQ
Results filed as inconclusive are left out. The source made the active and inactive calls. The calls were made as follows: active = hit-call score of the fitted dose curve at least 0.9, where 1 is the maximum; inconclusive = response in the unintended direction; inactive = score below 0.9.
endpoint_name: outcome

| compound | endpoint_name | obs_value |
| --- | --- | --- |
| Cc1ccc(O)c(-n2nc3ccccc3n2)c1 | outcome | inactive |
| CCCCCCCCn1sc(Cl)c(Cl)c1=O | outcome | inactive |
| CCCCC(CC)COC(=O)c1ccc(N(C)C)cc1 (stereo not drawn) | outcome | inactive |

---

experiment: ATG_AP_1_CIS: Attagene CIS-FACTORIAL HepG2 Assay for human Activator Protein 1 (AP-1) (AID 2282931); conditions: HepG2 Attagene cis-factorial AP-1 reporter mRNA; actives raise or lower the signal
The source made the active and inactive calls. The calls were made as follows: active = hit-call score of the fitted dose curve at least 0.9, where 1 is the maximum; inactive = score below 0.9.
Outcome codes: active, inactive

| compound | assigned_category |
| --- | --- |
| CC1=CCC(=O)O1 | inactive |
| Cc1cc(O)c(C(C)(C)C)cc1C(C)(C)C | active |
| Cc1ccc(O)cn1 | inactive |
| O=C1C=CC(=O)N1c1ccccc1 | inactive |
| CC(C)CCCC(C)CCO (centres undefined) | inactive |
| CN(C(=O)C(F)(F)C(F)(F)C(F)(F)F)[Si](C)(C)C | inactive |
| CC(C)(C)C(=O)C1C(=O)c2ccccc2C1=O | active |
| CNS(=O)(=O)C(F)(F)C(F)(F)C(F)(F)C(F)(F)C(F)(F)C(F)(F)C(F)(F)C(F)(F)F | active |
| CCOCN(C(=O)CS(=O)(=O)O)c1c(C)cccc1CC | inactive |
| CCCCCCCC/C=C\CCCCCCCC(=O)N(C)CC(=O)O | inactive |
| N#Cc1ccccc1O | inactive |
| OCC(F)(F)C(F)(F)C(F)(F)C(F)(F)C(F)(F)C(F)(F)C(F)(F)C(F)(F)CO | inactive |
| OCCCc1cccnc1 | inactive |
| CCOC(OCC)OCC | inactive |

// data source = PubChem BioAssay (EPA / NIEHS)
